From: PubChem BioAssay (NCATS)

# TEST_DESCRIPTION: NFAT Signaling Pathway (AID 444);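 note: carbachol stimulus at about its EC50 of 1 µM final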
# MEASUREMENT_CONDITIONS: Jurkat NFAT-bla M1, carbachol, beta-lactamase ratio, 5 h; at 7.69 µM (top of the series) unless noted
Records with an inconclusive call do not appear. Activity calls are given as the source filed them. Calls come from the whole dose curve; as a rule, active = well fitted curve in either direction with a large enough effect (not every such curve was filed as active); inconclusive = small, poorly fitted or top-dose-only effect, or another doubt; inactive = flat fitted curve, though single readings scatter.
Outcomes: active, inactive

[
  {
    "SAMPLE_SMILES": "N[C@H](Cn1cc(I)c(=O)[nH]c1=O)C(=O)O",
    "CLASS": "inactive"
  },
  {
    "SAMPLE_SMILES": "N[C@H](Cn1oc(=O)[nH]c1=O)C(=O)O",
    "CLASS": "inactive"
  },
  {
    "SAMPLE_SMILES": "COC(=O)[C@H](N)CCCN=C(N)N[N+](=O)[O-]",
    "CLASS": "inactive"
  },
  {
    "SAMPLE_SMILES": "CC[C@@H]1[C@@H]2Cc3ccc(O)cc3[C@@]1(CC)CCN2C",
    "CLASS": "inactive"
  },
  {
    "SAMPLE_SMILES": "O=C(O)CNC(=O)c1ccc([As](=O)(O)O)cc1",
    "CLASS": "inactive"
  },
  {
    "SAMPLE_SMILES": "CC[C@H]1CN2CCc3cc(OC)c(OC)cc3[C@H]2C[C@@H]1C[C@H]1NCCc2c1[nH]c1ccc(O)cc21",
    "CLASS": "active"
  }
]

----------
# TEST_DESCRIPTION: Cell Viability - NIH 3T3 (AID 541);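 note: cells exposed to compound for 40 hours; nearly all actives have a fitted effect of over 25% in size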; note: potency is the fitted concentration of half-maximal effect
# MEASUREMENT_CONDITIONS: NIH 3T3 cell viability, qHTS
Results filed as inconclusive are left out. The source made the active and inactive calls. Calls come from the whole dose curve; as a rule, active = well fitted cell-killing curve with a large enough effect; inconclusive = small, poorly fitted or top-dose-only effect; inactive = flat fitted curve, though single readings scatter.

[
  {
    "SAMPLE_SMILES": "c1ccc(P(c2ccccc2)c2ccccc2)cc1",
    "Potency": "25.1 µM (active)"
  },
  {
    "SAMPLE_SMILES": "CC(=O)NNc1ccccc1",
    "Potency": "inactive"
  },
  {
    "SAMPLE_SMILES": "Clc1ccc(Cl)c(Cl)c1",
    "Potency": "inactive"
  }
]

----------
# TEST_DESCRIPTION: MultiTox-Fluor Cytotoxicity Assay - LYMP1-003 - Dead Cells (AID 961);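 note: cells exposed to compound for 16 h at 37 °C; nearly all actives have a fitted effect of over 70% in size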
# MEASUREMENT_CONDITIONS: LYMP1-003 lymphoblastoid cells, dead-cell protease fluorescence; series mostly up to 92.2 µM
Calls of active or inactive are those of the source. Calls come from the whole dose curve; as a rule, active = well fitted cell-killing curve with a large enough effect; inconclusive = small, poorly fitted or top-dose-only effect, or effect the other way; inactive = flat fitted curve, though single readings scatter.
Outcomes: True (active), False (inactive)

[
  {
    "MOLECULE": "C1CC2OC2CC1C1CO1 (stereo not given)",
    "CLASS": "False"
  },
  {
    "MOLECULE": "CCNCC",
    "CLASS": "False"
  },
  {
    "MOLECULE": "C=CC(=O)OCC(CC)CCCC (stereo not given)",
    "CLASS": "False"
  },
  {
    "MOLECULE": "CC(C)(OOC(C)(C)c1ccccc1)c1ccccc1",
    "CLASS": "False"
  },
  {
    "MOLECULE": "CN(C)c1ccccc1",
    "CLASS": "False"
  },
  {
    "MOLECULE": "CC(C)(COCC1CO1)COCC1CO1 (stereo not given)",
    "CLASS": "False"
  },
  {
    "MOLECULE": "Nc1ccc([N+](=O)[O-])cc1[N+](=O)[O-]",
    "CLASS": "False"
  },
  {
    "MOLECULE": "Cc1ccc(N)c(N)c1",
    "CLASS": "True"
  },
  {
    "MOLECULE": "CC(C)[C@]12CC(=O)[C@H](C)[C@H]1C2",
    "CLASS": "False"
  },
  {
    "MOLECULE": "ClCc1ccccc1",
    "CLASS": "False"
  },
  {
    "MOLECULE": "CC(=O)[O-].CC(=O)[O-].CC(=O)[O-].[Cr+3]",
    "CLASS": "False"
  },
  {
    "MOLECULE": "Cc1ccc([N+](=O)[O-])cc1",
    "CLASS": "False"
  },
  {
    "MOLECULE": "O=[N+]([O-])c1cccc(CCl)c1",
    "CLASS": "False"
  },
  {
    "MOLECULE": "CCOC(=O)CBr",
    "CLASS": "False"
  },
  {
    "MOLECULE": "Cc1ccc2c(c1N)C(=O)c1ccccc1C2=O",
    "CLASS": "False"
  },
  {
    "MOLECULE": "CCSC(=O)N1CCCCCC1",
    "CLASS": "False"
  },
  {
    "MOLECULE": "c1ccc(NNc2ccccc2)cc1",
    "CLASS": "False"
  },
  {
    "MOLECULE": "Oc1cc(Cl)ccc1Cl",
    "CLASS": "False"
  },
  {
    "MOLECULE": "CCN(N=O)C(N)=O",
    "CLASS": "False"
  },
  {
    "MOLECULE": "O=C(O)c1cc(Cl)ccc1Cl",
    "CLASS": "False"
  },
  {
    "MOLECULE": "O=C(Cc1ccccc1)OCc1ccccc1",
    "CLASS": "False"
  },
  {
    "MOLECULE": "ClCC(Br)CBr (stereo not given)",
    "CLASS": "False"
  },
  {
    "MOLECULE": "CN(C)c1ccc(N=Nc2ccccc2)cc1",
    "CLASS": "False"
  },
  {
    "MOLECULE": "Nc1cc(Cl)cc(Cl)c1",
    "CLASS": "False"
  },
  {
    "MOLECULE": "N#CC(O)c1ccccc1 (stereo not given)",
    "CLASS": "False"
  },
  {
    "MOLECULE": "BrCCc1ccccc1",
    "CLASS": "False"
  },
  {
    "MOLECULE": "Cc1cc(Cl)ccc1O",
    "CLASS": "False"
  },
  {
    "MOLECULE": "BrC(Br)Br",
    "CLASS": "False"
  },
  {
    "MOLECULE": "CN1CSC(=S)N(C)C1",
    "CLASS": "False"
  },
  {
    "MOLECULE": "ClCCOCCCl",
    "CLASS": "False"
  },
  {
    "MOLECULE": "CC(=O)NNc1ccccc1",
    "CLASS": "False"
  },
  {
    "MOLECULE": "O=[N+]([O-])c1ccc(Cl)cc1",
    "CLASS": "False"
  },
  {
    "MOLECULE": "O=C(O)CBr",
    "CLASS": "False"
  },
  {
    "MOLECULE": "CC(C)CC(C)N (stereo not given)",
    "CLASS": "False"
  },
  {
    "MOLECULE": "CN(C)C(=O)Nc1cccc(C(F)(F)F)c1",
    "CLASS": "False"
  },
  {
    "MOLECULE": "Nc1ncc([N+](=O)[O-])s1",
    "CLASS": "False"
  },
  {
    "MOLECULE": "N#C/C=C/C#N",
    "CLASS": "False"
  },
  {
    "MOLECULE": "C=CCO",
    "CLASS": "False"
  },
  {
    "MOLECULE": "Nc1ccccc1-c1ccccc1",
    "CLASS": "False"
  },
  {
    "MOLECULE": "CCC(Cl)[N+](=O)[O-] (stereo not given)",
    "CLASS": "False"
  },
  {
    "MOLECULE": "Oc1ccc(Cl)c(Cl)c1",
    "CLASS": "False"
  },
  {
    "MOLECULE": "CCC[N+](=O)[O-]",
    "CLASS": "False"
  },
  {
    "MOLECULE": "Cl/C=C/Cl",
    "CLASS": "False"
  },
  {
    "MOLECULE": "Nc1cc(Cl)ccc1Cl",
    "CLASS": "False"
  },
  {
    "MOLECULE": "CCCCOC(C)=O",
    "CLASS": "False"
  },
  {
    "MOLECULE": "Clc1ccc(Cl)c(Cl)c1",
    "CLASS": "False"
  },
  {
    "MOLECULE": "Cc1cc(N=Nc2ccccc2C)ccc1N",
    "CLASS": "False"
  },
  {
    "MOLECULE": "Cc1ccc(N)cc1C",
    "CLASS": "False"
  },
  {
    "MOLECULE": "Cc1cccc(C)c1N",
    "CLASS": "False"
  },
  {
    "MOLECULE": "Cc1cc(-c2ccc(N)c(C)c2)ccc1N",
    "CLASS": "False"
  },
  {
    "MOLECULE": "CCCC[N+](=O)[O-]",
    "CLASS": "False"
  },
  {
    "MOLECULE": "O=C(O)C(Br)Br",
    "CLASS": "False"
  },
  {
    "MOLECULE": "C[N+](=O)[O-]",
    "CLASS": "False"
  },
  {
    "MOLECULE": "COC(=O)Nc1cccc(OC(=O)Nc2cccc(C)c2)c1",
    "CLASS": "False"
  },
  {
    "MOLECULE": "Cc1ccc(N=C=O)cc1N=C=O",
    "CLASS": "False"
  }
]
